All values here come from ChEMBL document CHEMBL1144325.

target: Sodium-dependent dopamine transporter (Rattus norvegicus, UniProt P23977); experiment: Displacement of [3H]GBR-12935 from dopamine transporter of rat caudate-putamen; format: tissue-based
Sequence (P23977 whole entry): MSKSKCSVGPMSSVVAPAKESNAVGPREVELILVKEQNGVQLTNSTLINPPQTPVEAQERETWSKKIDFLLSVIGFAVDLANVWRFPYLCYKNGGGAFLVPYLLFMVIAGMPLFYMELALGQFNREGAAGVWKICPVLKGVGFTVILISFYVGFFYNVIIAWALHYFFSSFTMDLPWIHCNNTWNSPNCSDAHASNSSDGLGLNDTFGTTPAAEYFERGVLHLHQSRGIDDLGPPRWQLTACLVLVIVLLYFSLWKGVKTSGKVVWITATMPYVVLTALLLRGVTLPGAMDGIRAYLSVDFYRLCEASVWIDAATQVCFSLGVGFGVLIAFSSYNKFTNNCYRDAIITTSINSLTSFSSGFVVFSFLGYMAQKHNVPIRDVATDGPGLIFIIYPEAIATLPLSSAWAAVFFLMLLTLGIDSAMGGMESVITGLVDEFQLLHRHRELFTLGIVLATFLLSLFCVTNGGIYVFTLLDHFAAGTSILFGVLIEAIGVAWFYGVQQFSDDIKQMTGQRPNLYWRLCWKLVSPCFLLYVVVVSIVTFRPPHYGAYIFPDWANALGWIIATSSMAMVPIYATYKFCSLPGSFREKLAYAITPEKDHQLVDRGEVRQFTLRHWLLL
pKi: −log10 of the molar value.
measured metric: pKi

>>> print(df.to_string())
                                   compound                         target_under_test  measured_metric  result_operator  readout_value
0  COC(=O)C1C2CCC(CC1c1ccc(-c3ccsc3)cc1)N2 (stereo not given)  Sodium-dependent dopamine transporter (Rattus norvegicus, UniProt P23977)              pKi                =           8.19
1  COC(=O)C1C(c2ccc(-c3cccs3)cc2)CC2CCC1N2C (stereo not given)  Sodium-dependent dopamine transporter (Rattus norvegicus, UniProt P23977)              pKi                =           7.28
2  COC(=O)C1C(c2ccc(-c3cc([N+](=O)[O-])c([N+](=O)[O-])s3)cc2)CC2CCC1N2C (stereo not given)  Sodium-dependent dopamine transporter (Rattus norvegicus, UniProt P23977)              pKi                <           4.52
3  COC(=O)C1C(c2ccc(-c3ccc(I)s3)cc2)CC2CCC1N2C (stereo not given)  Sodium-dependent dopamine transporter (Rattus norvegicus, UniProt P23977)              pKi                =           7.66
4  COC(=O)C1C(c2ccc(-c3cscc3Br)cc2)CC2CCC1N2C (stereo not given)  Sodium-dependent dopamine transporter (Rattus norvegicus, UniProt P23977)              pKi                =           6.74
5  COC(=O)C1C(c2ccc(-c3ccc(N)s3)cc2)CC2CCC1N2C (stereo not given)  Sodium-dependent dopamine transporter (Rattus norvegicus, UniProt P23977)              pKi                <           5.00
6  COC(=O)C1C(c2ccc(-c3ccc(Cl)s3)cc2)CC2CCC1N2C (stereo not given)  Sodium-dependent dopamine transporter (Rattus norvegicus, UniProt P23977)              pKi                =           8.35
7  COC(=O)C1C2CCC(CC1c1ccc(-c3cccs3)cc1)N2 (stereo not given)  Sodium-dependent dopamine transporter (Rattus norvegicus, UniProt P23977)              pKi                =           7.91
8  COC(=O)C1C(c2ccc(-c3ccsc3)cc2)CC2CCC1N2C (stereo not given)  Sodium-dependent dopamine transporter (Rattus norvegicus, UniProt P23977)              pKi                =           7.92
9  COC(=O)C1C(c2ccc(-c3ccc(Br)s3)cc2)CC2CCC1N2C (stereo not given)  Sodium-dependent dopamine transporter (Rattus norvegicus, UniProt P23977)              pKi                =           8.19

---

Below are Ki values measured for UniProtKB P31652.
Sequence (P31652 whole entry): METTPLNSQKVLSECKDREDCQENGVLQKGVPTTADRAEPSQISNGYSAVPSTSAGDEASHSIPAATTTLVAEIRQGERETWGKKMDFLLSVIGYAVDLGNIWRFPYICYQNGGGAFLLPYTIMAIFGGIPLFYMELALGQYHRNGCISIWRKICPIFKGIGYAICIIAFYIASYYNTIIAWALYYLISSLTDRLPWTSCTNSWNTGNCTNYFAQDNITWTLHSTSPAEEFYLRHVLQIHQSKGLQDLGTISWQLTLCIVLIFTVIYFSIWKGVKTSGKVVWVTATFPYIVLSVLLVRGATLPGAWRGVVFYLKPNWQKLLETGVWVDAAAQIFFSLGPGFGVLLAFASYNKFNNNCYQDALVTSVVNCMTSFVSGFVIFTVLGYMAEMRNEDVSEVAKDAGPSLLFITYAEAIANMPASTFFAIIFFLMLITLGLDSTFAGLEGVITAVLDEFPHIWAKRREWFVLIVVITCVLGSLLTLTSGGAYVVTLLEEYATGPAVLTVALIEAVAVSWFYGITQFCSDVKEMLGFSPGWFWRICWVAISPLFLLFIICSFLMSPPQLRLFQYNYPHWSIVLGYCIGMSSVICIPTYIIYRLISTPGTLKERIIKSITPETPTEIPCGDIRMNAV
measured metric: Ki (nM)

>>> print(df.to_string())
                                   compound  units_symbol  readout_value
0  COC(=O)C1C(c2ccc(-c3cccs3)cc2)CC2CCC1N2C (stereo not given)            nM           0.15
1  COC(=O)C1C(c2ccc(-c3ccc(N)s3)cc2)CC2CCC1N2C (stereo not given)            nM           64.7
2  COC(=O)C1C(c2ccc(-c3cscc3Br)cc2)CC2CCC1N2C (stereo not given)            nM           4.02
3  COC(=O)C1C(c2ccc(-c3cc([N+](=O)[O-])c([N+](=O)[O-])s3)cc2)CC2CCC1N2C (stereo not given)            nM           5000
4  COC(=O)C1C(c2ccc(-c3ccc(Cl)s3)cc2)CC2CCC1N2C (stereo not given)            nM           0.64
5  COC(=O)C1C(c2ccc(-c3ccc(I)s3)cc2)CC2CCC1N2C (stereo not given)            nM           4.56
6  COC(=O)C1C2CCC(CC1c1ccc(-c3cccs3)cc1)N2 (stereo not given)            nM           0.11
7  COC(=O)C1C2CCC(CC1c1ccc(-c3ccsc3)cc1)N2 (stereo not given)            nM           0.23
8  COC(=O)C1C(c2ccc(-c3ccsc3)cc2)CC2CCC1N2C (stereo not given)            nM          0.017
9  COC(=O)C1C(c2ccc(-c3ccc(Br)s3)cc2)CC2CCC1N2C (stereo not given)            nM           0.38
